Species: Rattus norvegicus
Experiment: Open TG-GATES - Regimen: Single
Type: toxicity, organism-based, Sprague-Dawley
Design: regimen Single, gender Male, age 6 weeks
Settings: in vivo, po, 100 mg/kg, 3 h, tissue Blood, route gavage, dose level High

compound	Lym
CN(C)CCCN1c2ccccc2CCc2ccc(Cl)cc21 [CLOMIPRAMINE]	77.8%
CN(C)CCN(Cc1cccs1)c1ccccn1	74%
CN(C)CCCN1c2ccccc2CCc2ccccc21 [IMIPRAMINE]	72.5%
CC1=C(/C=C/C(C)=C/C=C/C(C)=C/CO)C(C)(C)CCC1 [RETINOL]	77.2%

###

This listing pairs molecules with measured Na.
Organism: Rattus norvegicus
Test: Open TG-GATES - Regimen: Single
Format: toxicity, organism-based, Sprague-Dawley
Set-up: regimen Single, gender Male, age 6 weeks
Conditions: in vivo, po, 1000 mg/kg, 9 h, tissue Plasma, route gavage, dose level High
recordedEndpoint: Na

molecule	reportedMeasurement
NC(N)=Nc1nc(CSCCC(N)=NS(N)(=O)=O)cs1 [FAMOTIDINE]	140 meq/L
COc1ccc2[nH]c([S+]([O-])Cc3ncc(C)c(OC)c3C)nc2c1 (centres undefined) [OMEPRAZOLE]	141 meq/L
COC1=CC(=O)C[C@@H](C)[C@]12Oc1c(Cl)c(OC)cc(OC)c1C2=O [GRISEOFULVIN]	142.2 meq/L
CCOC(=O)CCC(=O)O[C@H]1[C@H](O[C@@H]2[C@@H](C)[C@H](O[C@H]3C[C@@](C)(OC)[C@@H](O)[C@H](C)O3)[C@@H](C)C(=O)O[C@H](CC)[C@@](C)(O)[C@H](O)[C@@H](C)C(=O)[C@H](C)C[C@@]2(C)O)O[C@H](C)C[C@@H]1N(C)C [ERYTHROMYCIN ETHYLSUCCINATE]	139.2 meq/L
